// data source = patent US20080214537A1

- Target Desc: human CB2 receptor (hCB2) (Homo sapiens, UniProt P34972)
- Sequence (P34972 whole entry): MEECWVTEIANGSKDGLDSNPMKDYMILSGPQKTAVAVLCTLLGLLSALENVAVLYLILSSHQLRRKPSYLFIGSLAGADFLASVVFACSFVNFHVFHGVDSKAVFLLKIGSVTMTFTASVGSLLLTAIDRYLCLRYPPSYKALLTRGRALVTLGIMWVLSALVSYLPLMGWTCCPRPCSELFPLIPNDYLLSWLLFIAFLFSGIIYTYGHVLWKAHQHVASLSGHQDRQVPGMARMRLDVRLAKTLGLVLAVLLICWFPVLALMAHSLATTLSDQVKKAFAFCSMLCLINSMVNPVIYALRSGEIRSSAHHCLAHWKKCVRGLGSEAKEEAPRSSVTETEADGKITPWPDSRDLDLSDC
- Assay Overview: cAMP assay (LANCE TR-FRET) in CHO-K1 cells expressing hCB2
- Condition Context: CHO-K1 cells stably expressing hCB2; intracellular cAMP, NKH-477 prestimulated; average of at least three replicates
pEC50: −log10 of the molar value.
Rule: pEC50 under 8 gives NOT MET, otherwise MET.

Exercise: API: above_or_equal(metric=pEC50, cutoff=8) for item CN(C)S(=O)(=O)c1ccc2c(c1)C1CC=CC1C(c1ccccc1)N2 (stereo not drawn)
Key: NOT MET

Exercise: API: above_or_equal(metric=pEC50, cutoff=8) for item CCCNC(=S)Nc1ccc2c(c1)C1C3CCC(C3)C1C(c1c(Cl)cccc1Cl)N2 (stereo not drawn)
Key: NOT MET

Exercise: API: above_or_equal(metric=pEC50, cutoff=8) for item CCCCc1nnc(-c2ccc3c(c2)C2C4CCC(C4)C2C(c2ccccc2)N3)o1 (stereo not drawn)
Key: NOT MET

Exercise: API: above_or_equal(metric=pEC50, cutoff=8) for item CC(=O)Nc1ccc2c(c1)C1C3CCC(C3)C1C(c1ccc(C)cc1)N2 (single isomer, unassigned) [(25a)]
Key: NOT MET

Exercise: API: above_or_equal(metric=pEC50, cutoff=8) for item CCCNC(=S)Nc1ccc2c(c1)C1C3CCC(C3)C1C(c1ccc(C)cc1)N2 (stereo not drawn)
Key: NOT MET

Exercise: API: above_or_equal(metric=pEC50, cutoff=8) for item Cn1nccc1C1Nc2ccc(S(=O)(=O)N3CCCC3)cc2C2C3CCC(C3)C12 (stereo not drawn)
Key: MET

Exercise: API: above_or_equal(metric=pEC50, cutoff=8) for item O=S(=O)(c1ccc2c(c1)C1C3CCC(C3)C1C(c1ccccc1)N2)N1CCCC1 (stereo not drawn)
Key: MET

Exercise: API: above_or_equal(metric=pEC50, cutoff=8) for item CN(C)S(=O)(=O)c1ccc2c(c1)C1C3CCC(C3)C1C(c1nccs1)N2 (stereo not drawn)
Key: NOT MET

Exercise: API: above_or_equal(metric=pEC50, cutoff=8) for item O=C(NCC1CC1)c1ccc2c(c1)C1C3CCC(C3)C1C(c1ccccc1)N2 (stereo not drawn)
Key: NOT MET

Exercise: API: above_or_equal(metric=pEC50, cutoff=8) for item Cc1nc(-c2ccc3c(c2)C2C4CCC(C4)C2C(c2ccccc2)N3)cs1 (stereo not drawn)
Key: NOT MET

Exercise: API: above_or_equal(metric=pEC50, cutoff=8) for item c1ccc(C2Nc3ccc(N4CCOCC4)cc3C3C4CCC(C4)C23)cc1 (stereo not drawn)
Key: NOT MET

Exercise: API: above_or_equal(metric=pEC50, cutoff=8) for item O=C(Nc1ccc2c(c1)C1C3CCC(C3)C1C(c1c(Cl)cccc1Cl)N2)C1CC1 (stereo not drawn)
Key: NOT MET

Exercise: API: above_or_equal(metric=pEC50, cutoff=8) for item CC(=O)NS(=O)(=O)c1ccc2c(c1)C1C3CCC(C3)C1C(c1ccccc1)N2 (stereo not drawn)
Key: NOT MET

Exercise: API: above_or_equal(metric=pEC50, cutoff=8) for item CN(C)S(=O)(=O)c1ccc2c(c1)C1C3CCC(C3)C1C(c1ccccc1)N2 (stereo not drawn)
Key: MET

Exercise: API: above_or_equal(metric=pEC50, cutoff=8) for item CC(=O)Nc1ccc(C2Nc3ccc(S(=O)(=O)N(C)C)cc3C3C4CCC(C4)C23)cc1 (stereo not drawn)
Key: NOT MET

Exercise: API: above_or_equal(metric=pEC50, cutoff=8) for item Cn1nccc1C1Nc2ccc(S(=O)(=O)N3CCOCC3)cc2C2C3CCC(C3)C12 (stereo not drawn)
Key: MET

* * *

- Target Desc: human CB1 receptor (hCB1) (Homo sapiens)
- Sequence (P21554 whole entry): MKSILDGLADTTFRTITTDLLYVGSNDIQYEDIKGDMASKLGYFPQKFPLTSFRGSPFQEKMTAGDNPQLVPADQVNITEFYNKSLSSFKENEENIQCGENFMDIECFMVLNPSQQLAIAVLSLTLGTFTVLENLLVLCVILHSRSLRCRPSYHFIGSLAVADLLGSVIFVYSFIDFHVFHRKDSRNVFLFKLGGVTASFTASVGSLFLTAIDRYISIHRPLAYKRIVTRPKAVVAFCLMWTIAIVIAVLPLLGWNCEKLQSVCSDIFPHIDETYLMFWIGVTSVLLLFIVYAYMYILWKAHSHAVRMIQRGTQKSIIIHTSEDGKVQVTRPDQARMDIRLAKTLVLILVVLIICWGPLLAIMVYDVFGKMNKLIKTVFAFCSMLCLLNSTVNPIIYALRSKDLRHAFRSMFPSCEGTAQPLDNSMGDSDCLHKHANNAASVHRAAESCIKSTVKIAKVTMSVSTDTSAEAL
- Assay Overview: cAMP assay (LANCE TR-FRET) in CHO-K1 cells expressing hCB1
- Condition Context: CHO-K1 cells stably expressing hCB1; intracellular cAMP, NKH-477 prestimulated; activity on hCB1 represents inverse agonism
What EC50 was measured for each of the following?

Briefly, EC50 measured for CN(C)S(=O)(=O)c1ccc2c(c1)C1C3CCC(C3)C1C(c1nccs1)N2 (stereo not shown) : > 10 µM

Briefly, EC50 measured for Cn1nccc1C1Nc2ccc(S(N)(=O)=O)cc2C2C3CCC(C3)C12 (stereo not shown) : > 10 µM

Briefly, EC50 measured for CCCCc1nnc(-c2ccc3c(c2)C2C4CCC(C4)C2C(c2ccccc2)N3)o1 (stereo not shown) : > 10 µM

Briefly, EC50 measured for CC(=O)Nc1ccc2c(c1)C1C3CCC(C3)C1C(c1ccc(C)cc1)N2 (single isomer, unassigned) [(25b)] : 3.54 µM

Briefly, EC50 measured for CCCNC(=O)Nc1ccc2c(c1)C1C3CCC(C3)C1C(c1c(Cl)cccc1Cl)N2 (stereo not shown) : > 10 µM

Briefly, EC50 measured for O=C(NCc1ccccc1)c1ccc2c(c1)C1C3CCC(C3)C1C(c1ccccc1)N2 (stereo not shown) : > 10 µM

Briefly, EC50 measured for c1ccc(C2Nc3ccc(N4CCOCC4)cc3C3C4CCC(C4)C23)cc1 (stereo not shown) : > 10 µM

Briefly, EC50 measured for Cc1ccc(C2Nc3ccc(NC(=O)C4CC4)cc3C3C4CCC(C4)C23)cc1 (stereo not shown) : 1.81 µM

Briefly, EC50 measured for CCCCC(=O)Nc1ccc2c(c1)C1C3CCC(C3)C1C(c1ccc(C)cc1)N2 (stereo not shown) : > 10 µM

Briefly, EC50 measured for O=S(=O)(c1ccc2c(c1)C1C3CCC(C3)C1C(c1c(Cl)cccc1Cl)N2)N1CCCCC1 (stereo not shown) : > 10 µM

Briefly, EC50 measured for CCCNC(=S)Nc1ccc2c(c1)C1C3CCC(C3)C1C(c1ccc(C)cc1)N2 (stereo not shown) : 2.04 µM

Briefly, EC50 measured for O=S(=O)(c1ccc2c(c1)C1CC=CC1C(c1ccccc1)N2)N1CCCCC1 (stereo not shown) : > 10 µM

Briefly, EC50 measured for CC(=O)NS(=O)(=O)c1ccc2c(c1)C1C3CCC(C3)C1C(c1ccnn1C)N2 (stereo not shown) : > 10 µM

Briefly, EC50 measured for Cc1nc(-c2ccc3c(c2)C2C4CCC(C4)C2C(c2ccnn2C)N3)cs1 (stereo not shown) : 2.93 µM

Briefly, EC50 measured for CC(=O)Nc1ccc2c(c1)C1C3CCC(C3)C1C(c1ccccc1)N2 (stereo not shown) : 2.61 µM

Briefly, EC50 measured for Cc1ccc(C2Nc3ccc(NC(=O)CC4CCCO4)cc3C3C4CCC(C4)C23)cc1 (stereo not shown) : > 10 µM

Briefly, EC50 measured for O=C(CC1CCCO1)Nc1ccc2c(c1)C1C3CCC(C3)C1C(c1ccccc1)N2 (stereo not shown) : > 10 µM

Briefly, EC50 measured for O=C(Nc1ccc2c(c1)C1C3CCC(C3)C1C(c1ccccc1)N2)C1CC1 (stereo not shown) : 1.7 µM

Briefly, EC50 measured for Cc1nc(-c2ccc3c(c2)C2C4CCC(C4)C2C(c2ccccc2)N3)cs1 (stereo not shown) : 3.85 µM

Briefly, EC50 measured for Cn1nccc1C1Nc2ccc(S(=O)(=O)N3CCCC3)cc2C2C3CCC(C3)C12 (stereo not shown) : > 10 µM

Briefly, EC50 measured for O=S(=O)(c1ccc2c(c1)C1C3CCC(C3)C1C(c1cncnc1)N2)N1CCOCC1 (stereo not shown) : > 10 µM

Briefly, EC50 measured for CC(=O)Nc1ccc2c(c1)C1C3CCC(C3)C1C(c1ccc(C)cc1)N2 (single isomer, unassigned) [(25a)] : 3.28 µM

Briefly, EC50 measured for O=S(=O)(c1ccc2c(c1)C1C3CCC(C3)C1C(c1ccccc1)N2)N1CCOCC1 (stereo not shown) : > 10 µM

Briefly, EC50 measured for CCCCC(=O)Nc1ccc2c(c1)C1C3CCC(C3)C1C(c1ccccc1)N2 (stereo not shown) : > 10 µM

Briefly, EC50 measured for CC(=O)Nc1ccc2c(c1)C1C3CCC(C3)C1C(c1c(Cl)cccc1Cl)N2 (stereo not shown) : > 10 µM

Briefly, EC50 measured for CCC1Nc2ccc(NC(=O)C3CC3)cc2C2C3CCC(C3)C12 (stereo not shown) : > 10 µM

Briefly, EC50 measured for CN(C)S(=O)(=O)c1ccc2c(c1)C1C3CCC(C3)C1C(c1ccnn1C)N2 (stereo not shown) : > 10 µM

Briefly, EC50 measured for CS(=O)(=O)N(c1ccc2c(c1)C1C3CCC(C3)C1C(c1ccccc1)N2)S(C)(=O)=O (stereo not shown) : > 10 µM

Briefly, EC50 measured for Cc1ccc(C2Nc3ccc(N4CCOCC4)cc3C3C4CCC(C4)C23)cc1 (stereo not shown) : > 10 µM

Briefly, EC50 measured for CN(C)S(=O)(=O)c1ccc2c(c1)C1CC=CC1C(c1ccccc1)N2 (stereo not shown) : 1.04 µM

Briefly, EC50 measured for O=S(=O)(c1ccc2c(c1)C1C3CCC(C3)C1C(c1ccccc1)N2)N1CCCC1 (stereo not shown) : > 10 µM

Briefly, EC50 measured for COCCC(=O)Nc1ccc2c(c1)C1C3CCC(C3)C1C(c1ccccc1)N2 (stereo not shown) : > 10 µM

Briefly, EC50 measured for CC(=O)NS(=O)(=O)c1ccc2c(c1)C1C3CCC(C3)C1C(c1ccccc1)N2 (stereo not shown) : > 10 µM

Briefly, EC50 measured for CCCNC(=S)Nc1ccc2c(c1)C1C3CCC(C3)C1C(c1ccccc1)N2 (stereo not shown) : 1.86 µM

Briefly, EC50 measured for O=S(=O)(c1ccc2c(c1)C1C3CCC(C3)C1C(c1ccccc1)N2)N1CCCCC1 (stereo not shown) : > 10 µM

Briefly, EC50 measured for Cn1nccc1C1Nc2ccc(S(=O)(=O)N3CCOCC3)cc2C2C3CCC(C3)C12 (stereo not shown) : > 10 µM

Briefly, EC50 measured for O=C(NCC1CC1)c1ccc2c(c1)C1C3CCC(C3)C1C(c1ccccc1)N2 (stereo not shown) : > 10 µM
